- Test system: human colorectal cancer-derived cell line NCI-H716
- Protocol Text: GLP-1 secretion, GLP-1 concentration in supernatant by ELISA
- Format: cell-based
- Measurement Conditions: Homo sapiens, NCI-H716, 1 h, GLP-1 concentration in supernatant against control group (0.1% DMSO) as 1, 60 minutes, 300 μM
Assay Endpoint: fold induction at 300 µM

>  <Compound>
CCCCCCCCCC(=O)OCc1ccc(OC2OC(CO)C(O)C(O)C2O)c(OC)c1 (centres unmarked)

>  <Assay Endpoint>
fold induction at 300 µM

>  <Test Value>
3.25

$$$$
>  <Compound>
COc1cc(CNC(=O)CCCCCCC(C)C)ccc1O[C@@H]1O[C@H](CO)[C@@H](O)[C@H](O)[C@H]1O [compound 47, reference compound]

>  <Assay Endpoint>
fold induction at 300 µM

>  <Test Value>
0.78

$$$$
>  <Compound>
COc1cccc(COC(=O)CCCCCCC(C)C)c1OC1OC(CO)C(OC2OC(CO)C(O)C(O)C2O)C(O)C1O (centres unmarked)

>  <Assay Endpoint>
fold induction at 300 µM

>  <Test Value>
9.5

$$$$
>  <Compound>
COc1cc(CO)ccc1O[C@@H]1O[C@H](CO)[C@@H](O[C@@H]2O[C@H](CO)[C@@H](O)[C@H](O)[C@H]2O)[C@H](O)[C@H]1O

>  <Assay Endpoint>
fold induction at 300 µM

>  <Test Value>
1.12

$$$$
>  <Compound>
COc1cc(CCC(=O)OCCCCCCCC(C)C)ccc1OC1OC(CO)C(O)C(O)C1O (centres unmarked)

>  <Assay Endpoint>
fold induction at 300 µM

>  <Test Value>
2.6

$$$$
>  <Compound>
COc1cccc(COC(=O)CCCCCCC(C)C)c1OC1OC(COC(C)=O)C(OC2OC(COC(C)=O)C(OC(C)=O)C(OC(C)=O)C2OC(C)=O)C(OC(C)=O)C1OC(C)=O (centres unmarked)

>  <Assay Endpoint>
fold induction at 300 µM

>  <Test Value>
1.15

$$$$
>  <Compound>
COc1cc(CC(=O)OCCCCCCCC(C)C)ccc1OC1OC(CO)C(OC2OC(CO)C(O)C(O)C2O)C(O)C1O (centres unmarked)

>  <Assay Endpoint>
fold induction at 300 µM

>  <Test Value>
1.66

$$$$
>  <Compound>
COc1ccc(COC(=O)CCCCCCC(C)C)cc1OC1OC(CO)C(O)C(O)C1O (centres unmarked)

>  <Assay Endpoint>
fold induction at 300 µM

>  <Test Value>
1.94

$$$$
